The measurements presented in this section are drawn from paper PMC5540273.

# System: CAMK2B
# Cond: concentration: 1 μM, replicates: in singlicate; n = 1
// %Inh lookup, one value per entry

[
  {
    "Compound": "O=C(Nc1ccc2c(c1)OCO2)NC1CCN(c2ccnc(Nc3ccc(F)cc3)n2)C1 (stereo not drawn)",
    "Measure Unit": "%",
    "%Inh": 0
  },
  {
    "Compound": "O=C(Nc1n[nH]c2cc(-c3cccc(F)c3F)ccc12)C1CC1",
    "Measure Unit": "%",
    "%Inh": 13
  },
  {
    "Compound": "COc1cc2ncnc(Nc3ccc4nc(-c5ccccc5)[nH]c4c3)c2cc1OC.Cl",
    "Measure Unit": "%",
    "%Inh": 0
  },
  {
    "Compound": "Cc1csc(-c2nc(Nc3ccncc3)c3ccccc3n2)n1",
    "Measure Unit": "%",
    "%Inh": 2
  },
  {
    "Compound": "COC(=O)c1c(-c2ccccc2)c2cc(OC)ccc2c(=O)n1Cc1ccccc1",
    "Measure Unit": "%",
    "%Inh": 0
  },
  {
    "Compound": "Fc1cc(Cl)ccc1Nc1ccnc2cc(I)ccc12",
    "Measure Unit": "%",
    "%Inh": 0
  },
  {
    "Compound": "Cc1ccc(C(=O)Nc2ccc(Nc3ccnc4cc(-c5ccccn5)ccc34)cc2O)cc1.Cl",
    "Measure Unit": "%",
    "%Inh": 0
  },
  {
    "Compound": "Cl.c1ccc(-c2n[nH]cc2-c2ccnc(-c3ccc(CN4CCOCC4)cc3)c2)nc1",
    "Measure Unit": "%",
    "%Inh": 5
  },
  {
    "Compound": "Cc1cccc(-c2nc(-c3ccc(S(C)(=O)=O)cc3)sc2-c2ccnc(NCCc3ccccc3)c2)c1",
    "Measure Unit": "%",
    "%Inh": 0
  },
  {
    "Compound": "CS(=O)(=O)c1ccc(-c2c(-c3ncn[nH]3)sc(N3CCOCC3)c2C#N)cc1",
    "Measure Unit": "%",
    "%Inh": 30
  },
  {
    "Compound": "Cn1cncc1-c1ccc2ncnc(Nc3ccc(OCc4ccccc4)cc3)c2c1",
    "Measure Unit": "%",
    "%Inh": 0
  },
  {
    "Compound": "COc1cccc(NC(=O)NC2CCN(c3ccnc(Nc4ccc(F)cc4)n3)C2)c1 (stereo not drawn)",
    "Measure Unit": "%",
    "%Inh": 0
  },
  {
    "Compound": "Cc1cccc(-c2nc(C)cc(Nc3ccncc3)n2)n1",
    "Measure Unit": "%",
    "%Inh": 0
  },
  {
    "Compound": "Cl.O=C(Nc1cccc(-c2nn3ncccc3c2-c2ccnc(Nc3cccnc3)n2)c1)c1c(F)cccc1F",
    "Measure Unit": "%",
    "%Inh": 0
  },
  {
    "Compound": "Cc1ccc(-c2cc(-c3c[nH]nc3-c3ccccn3)ccn2)cc1",
    "Measure Unit": "%",
    "%Inh": 0
  },
  {
    "Compound": "Cn1ccc2ncnc(Oc3ccc(NC(=O)Nc4ccccc4)cc3)c21",
    "Measure Unit": "%",
    "%Inh": 0
  },
  {
    "Compound": "COc1ccccc1-c1ccc2c(NC(=O)C3CC3)n[nH]c2n1",
    "Measure Unit": "%",
    "%Inh": 0
  },
  {
    "Compound": "CN1C(=O)C(Nc2ccc(Cl)c(C(=O)O)c2)=C(c2ccc(Cl)cc2)C1=O",
    "Measure Unit": "%",
    "%Inh": 0
  }
]

###

# Tested on: TNNI3K
# Cond: concentration: 1 μM, replicates: in singlicate; n = 1

[
  {
    "Compound": "Cn1cncc1-c1ccc2ncnc(Nc3ccc(OCc4ccccc4)cc3)c2c1 [GW320571]",
    "Assay Target": "TNNI3K",
    "%Inh (%)": 23
  },
  {
    "Compound": "CCn1c(-c2cccnc2O)nc2cnccc21 [SB-736715]",
    "Assay Target": "TNNI3K",
    "%Inh (%)": 0
  },
  {
    "Compound": "Cc1cc(N2Cc3ccccc3C2)nc(Nc2ccc(S(=O)(=O)N3CCOCC3)cc2)n1.Cl [GSK1669917]",
    "Assay Target": "TNNI3K",
    "%Inh (%)": 0
  },
  {
    "Compound": "C[C@@H]1CCCCN1c1cc(-c2ccc3c(N)n[nH]c3c2)nc(N)n1 [GSK2258759]",
    "Assay Target": "TNNI3K",
    "%Inh (%)": 0
  },
  {
    "Compound": "CS(=O)(=O)c1ccc(-c2c(-c3ncn[nH]3)sc(N3CCOCC3)c2C#N)cc1",
    "Assay Target": "TNNI3K",
    "%Inh (%)": 0
  }
]

###

# System: MAP3K15
# Cond: concentration: 1 μM, replicates: in singlicate; n = 1
// %Inh lookup, one value per entry

[
  {
    "Compound": "COc1ccc(Nc2nccc(NCCNC(=O)Nc3ccccc3F)n2)cc1 [GSK1379901]",
    "Measure Unit": "%",
    "%Inh": 0
  },
  {
    "Compound": "Cc1cccc(-c2nc(Nc3ccncc3)c3ccccc3n2)n1 [GW855857]",
    "Measure Unit": "%",
    "%Inh": 0
  },
  {
    "Compound": "COC(=O)c1c(-c2ccccc2)c2cc(OC)ccc2c(=O)n1Cc1ccccc1",
    "Measure Unit": "%",
    "%Inh": 0
  },
  {
    "Compound": "COC(=O)c1c(-c2ccccc2)c2cc(C(=O)O)ccc2c(=O)n1Cc1ccccc1",
    "Measure Unit": "%",
    "%Inh": 8
  },
  {
    "Compound": "Cc1nnc(-c2ccc3occ(-c4ccc(S(C)=O)cc4)c3c2)[nH]1 (stereo not drawn)",
    "Measure Unit": "%",
    "%Inh": 10
  },
  {
    "Compound": "Cc1cccc(-c2nc(Nc3cccc(C(N)=O)c3)c3ccccc3n2)n1 [GW876019]",
    "Measure Unit": "%",
    "%Inh": 0
  },
  {
    "Compound": "Cc1cc(-c2ccc3c(c2)CC[C@@H](N[C@@H](C)c2ccccc2)C3)cnc1N.Cl [GW412617]",
    "Measure Unit": "%",
    "%Inh": 0
  },
  {
    "Compound": "COc1cc2ncnc(Nc3ccc4nc(-c5ccccc5)[nH]c4c3)c2cc1OC.Cl [GW282450]",
    "Measure Unit": "%",
    "%Inh": 0
  },
  {
    "Compound": "C[C@@H]1CCCCN1c1cc(-c2ccc3c(N)n[nH]c3c2)nc(N)n1 [GSK2258759]",
    "Measure Unit": "%",
    "%Inh": 0
  }
]

###

# Test system: NEK4;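 also: kd values determined as follow-up on hits from a single-replicate KINOMEscan panel screen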

[
  {
    "Substance Smiles": "Cn1ccc2ncnc(Oc3ccc(Nc4nc5ccccc5[nH]4)cc3)c21",
    "Assay Target": "NEK4",
    "Kd": "> 10 µM"
  }
]

###

# Test system: PFTK1
# Construct: gene CDK14
# Cond: concentration: 1 μM, replicates: in singlicate; n = 1
// %Inh lookup, one value per entry
Test Readout: %Inh

[
  {
    "Molecule": "COc1cc(Nc2nccc(N3CCC(NC(=O)Nc4cc(C)ccc4C)C3)n2)cc(OC)c1OC (stereo not drawn)",
    "Test Readout": "%Inh",
    "Value Measured": "21%"
  },
  {
    "Molecule": "COC(=O)c1c(-c2ccccc2)c2cc(OC)ccc2c(=O)n1Cc1ccccc1",
    "Test Readout": "%Inh",
    "Value Measured": "6%"
  },
  {
    "Molecule": "Cl.c1ccc(-c2n[nH]cc2-c2ccnc(-c3ccc(CN4CCOCC4)cc3)c2)nc1",
    "Test Readout": "%Inh",
    "Value Measured": "0%"
  },
  {
    "Molecule": "O=C(O)COc1ncnc2cc(-c3ccc4[nH]ncc4c3)sc12",
    "Test Readout": "%Inh",
    "Value Measured": "12%"
  },
  {
    "Molecule": "CS(=O)(=O)c1ccc(-c2c(-c3ncn[nH]3)sc(N3CCOCC3)c2C#N)cc1",
    "Test Readout": "%Inh",
    "Value Measured": "13%"
  },
  {
    "Molecule": "Cc1cccc(-c2nc(Nc3ccc4[nH]ncc4c3)c3ccccc3n2)n1",
    "Test Readout": "%Inh",
    "Value Measured": "9%"
  },
  {
    "Molecule": "Cc1nnc(-c2ccc3occ(-c4ccc(S(C)=O)cc4)c3c2)[nH]1 (stereo not drawn)",
    "Test Readout": "%Inh",
    "Value Measured": "6%"
  },
  {
    "Molecule": "NC(=O)c1nnc2ccccc2c1N",
    "Test Readout": "%Inh",
    "Value Measured": "5%"
  },
  {
    "Molecule": "Cl.O=C(Nc1cccc(-c2nn3ncccc3c2-c2ccnc(Nc3cccnc3)n2)c1)c1c(F)cccc1F",
    "Test Readout": "%Inh",
    "Value Measured": "9%"
  }
]
